Hello, the source for this data is ChEMBL document CHEMBL3244375, in case you need it.

Activity listing for selected molecules.
Test system: Rattus norvegicus
measurement-protocol: Toxicity in Sprague-Dawley rat assessed as increase in liver weight at 0.125 % compound administered in diet for 14 days relative to control
Type: organism-based
run-conditions: in vivo, po, 336 h
readout: Activity (%)

CCCCC(Sc1ccc(OC)cc1)C(=O)O (stereo unspecified) = 0
CCCCCC(C)(Sc1cc(C(C)(C)C)cc(C(C)(C)C)c1)C(=O)O (stereo unspecified) = 20
CCCC(C)(Sc1cc(C(C)(C)C)cc(C(C)(C)C)c1)C(=O)O (stereo unspecified) = 40
CCCCC(Sc1ccc(Cl)cc1)C(=O)O (stereo unspecified) = 0
CC(C)(Sc1cc(C(C)(C)C)cc(C(C)(C)C)c1)C(=O)O = 30
CCCCC(C(=O)O)S(=O)(=O)c1cc(C(C)(C)C)c(O)c(C(C)(C)C)c1 (stereo unspecified) = 20
